- procedure_text: growth inhibition, single agent and combos, cell-based, chromothripsis tumors, cisplatin or BGB combos (AID 1671450);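 note: cells exposed to compound for four days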
- reported_conditions: HDN33 neuroblastoma cells, BGB combo, at 5 µM, stronger effect = higher value
Categorized via inhibition: low-valued (below -10%), mid-valued (-10% to below 70%), high-valued (70% or more)

Inquiry: Textbook exercise: identify the category of the compound given here, Cn1cc(-c2cnn3c(N)c(Br)c([C@H]4CCCNC4)nc23)cn1 , according to its measured value.
Reply text: high-valued

Inquiry: Textbook exercise: identify the category of the compound given here, O=C(CCCCCCC(=O)Nc1ccc(I)cc1)NO , according to its measured value.
Reply text: high-valued

Inquiry: Textbook exercise: identify the category of the compound given here, CC1OC(CC(=O)O)CC2=C1C(=O)c1c(O)cccc1C2=O (stereo not given) , according to its measured value.
Reply text: high-valued

Inquiry: Textbook exercise: identify the category of the compound given here, CCC(Sc1nnc2c3ccccc3n(CC)c2n1)C(=O)Nc1ccccc1OC (stereo not given) , according to its measured value.
Reply text: low-valued

Inquiry: Textbook exercise: identify the category of the compound given here, Nc1ccn(C2CCC(CO)O2)c(=O)n1 (stereo not given) , according to its measured value.
Reply text: low-valued

Inquiry: Textbook exercise: identify the category of the compound given here, Cc1cn(C2CC(O)C(COP(=O)(O)OP(=O)(O)OP(=O)(O)O)O2)c(=O)[nH]c1=O (stereo not given) , according to its measured value.
Reply text: mid-valued

Inquiry: Textbook exercise: identify the category of the compound given here, O=c1cc(-c2ccc(O)cc2)[nH]c(=S)[nH]1 , according to its measured value.
Reply text: low-valued

Inquiry: Textbook exercise: identify the category of the compound given here, O=C(O)c1cc2cccc([N+](=O)[O-])c2[nH]1 , according to its measured value.
Reply text: mid-valued

Inquiry: Textbook exercise: identify the category of the compound given here, C=CC1=C(C)C2=CC3=NC(=C(CC(=O)O)C4=NC(=C(C)C4=C(O)O)C=c4[nH]c(c(C)c4CC)=CC1=N2)C(CCC(=O)O)C3C (stereo not given) , according to its measured value.
Reply text: mid-valued

Inquiry: Textbook exercise: identify the category of the compound given here, COc1cccc2c1C(=O)c1c(O)c3c(c(O)c1C2=O)CC(O)(C(=O)CO)CC3OC1CC(N)C(OC2CCCCO2)C(C)O1 (stereo not given) , according to its measured value.
Reply text: high-valued

Origin of the recorded values: PubChem BioAssay
